Recorded values, source IntAct's records for PubMed 35152348.

B1: Proline-serine-threonine phosphatase-interacting protein 1 (Homo sapiens), O43586 (parent)
chain: MMPQLQFKDAFWCRDFTAHTGYEVLLQRLLDGRKMCKDMEELLRQRAQAEERYGKELVQIARKAGGQTEINSLRASFDSLKQQMENVGSSHIQLALTLREELRSLEEFRERQKEQRKKYEAVMDRVQKSKLSLYKKAMESKKTYEQKCRDADDAEQAFERISANGHQKQVEKSQNKARQCKDSATEAERVYRQSIAQLEKVRAEWEQEHRTTCEAFQLQEFDRLTILRNALWVHSNQLSMQCVKDDELYEEVRLTLEGCSIDADIDSFIQAKSTGTEPPAPVPYQNYYDREVTPLTSSPGIQPSCGMIKRFSGLLHGSPKTTSLAASAASTETLTPTPERNEGVYTAIAVQEIQGNPASPAQEYRALYDYTAQNPDELDLSAGDILEVILEGEDGWWTVERNGQRGFVPGSYLEKL
partner: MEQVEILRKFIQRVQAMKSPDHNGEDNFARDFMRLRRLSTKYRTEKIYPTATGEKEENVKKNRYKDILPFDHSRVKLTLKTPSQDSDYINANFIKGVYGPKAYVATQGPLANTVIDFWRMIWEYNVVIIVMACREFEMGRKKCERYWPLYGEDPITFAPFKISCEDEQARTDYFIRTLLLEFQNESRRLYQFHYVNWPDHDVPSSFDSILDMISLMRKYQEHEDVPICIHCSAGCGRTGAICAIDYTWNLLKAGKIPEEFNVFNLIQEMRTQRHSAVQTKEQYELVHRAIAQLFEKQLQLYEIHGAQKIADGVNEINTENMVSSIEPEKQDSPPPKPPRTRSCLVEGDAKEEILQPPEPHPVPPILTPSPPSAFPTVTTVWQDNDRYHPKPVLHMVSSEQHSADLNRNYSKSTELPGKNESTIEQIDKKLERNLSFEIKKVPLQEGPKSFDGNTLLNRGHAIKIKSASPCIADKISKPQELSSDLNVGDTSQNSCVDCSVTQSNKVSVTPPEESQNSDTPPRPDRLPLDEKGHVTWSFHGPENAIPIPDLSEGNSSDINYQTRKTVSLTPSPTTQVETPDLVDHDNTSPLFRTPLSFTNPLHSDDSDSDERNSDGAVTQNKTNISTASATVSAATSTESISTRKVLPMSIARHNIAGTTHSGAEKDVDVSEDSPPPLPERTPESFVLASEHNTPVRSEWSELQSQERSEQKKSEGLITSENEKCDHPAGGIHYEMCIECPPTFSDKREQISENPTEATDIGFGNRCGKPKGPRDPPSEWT

# Variants of: B1
# condition parameters: with ptn12_human PTPN12, Q05209
quantity name: effect of a mutation on the interaction

Consider the reported effect of a mutation on the interaction for these variants:
sequence_change=D246N assay_result="with no effect"
sequence_change=D266N assay_result="with no effect"
sequence_change=Q219H assay_result="with no effect"
sequence_change=G258A assay_result="with no effect"

input: Note down effect of a mutation on the interaction recorded for `E257G`
output: with no effect

input: Note down effect of a mutation on the interaction recorded for `A230T`
output: with no effect

input: Note down effect of a mutation on the interaction recorded for `T274M`
output: with no effect
